Reported % ΔcGI values are given for each entry in this list.
# Test system: MAP Dominic (ATCC 43545), isolated from human with Crohn's disease
# Type: cell-based, Mycobacterium avium subspecies paratuberculosis
# conditions: 1 μg/ml; Human MAP Dominic Expt. 2; vs 3.2% DMSO control
propertyLabel: % ΔcGI (%)

# compound, assaySystem, propertyLabel, measured
data = [
    ("CO[C@H]1C[C@@H]2CC[C@@H](C)[C@@](O)(O2)C(=O)C(=O)N2CCCC[C@H]2C(=O)O[C@H]([C@H](C)C[C@@H]2CC[C@@H](O)[C@H](OC)C2)CC(=O)[C@H](C)/C=C(\\C)[C@@H](O)[C@@H](OC)C(=O)[C@H](C)C[C@H](C)/C=C/C=C/C=C/1C [Rapamycin, sirolimus (rapamycin)]", "MAP Dominic (ATCC 43545), isolated from human with Crohn's disease", "% ΔcGI", 0),
    ("C=CC[C@@H]1/C=C(\\C)C[C@H](C)C[C@H](OC)[C@H]2O[C@@](O)(C(=O)C(=O)N3CCCC[C@H]3C(=O)O[C@H](/C(C)=C/[C@@H]3CC[C@@H](O)[C@H](OC)C3)[C@H](C)[C@@H](O)CC1=O)[C@H](C)C[C@@H]2OC [Tacrolimus, tacrolimus (FK506)]", "MAP Dominic (ATCC 43545), isolated from human with Crohn's disease", "% ΔcGI", 5),
    ("O=C1NC(=O)c2ccccc21 [Phthalimide, phthalimide]", "MAP Dominic (ATCC 43545), isolated from human with Crohn's disease", "% ΔcGI", "−1"),
    ("CC(C)/N=c1\\cc2n(-c3ccc(Cl)cc3)c3ccccc3nc-2cc1Nc1ccc(Cl)cc1 [Clofazimine, clofazimine]", "MAP Dominic (ATCC 43545), isolated from human with Crohn's disease", "% ΔcGI", "−99"),
    ("C[C@@H]1C[C@@H]([C@H](O)CC2CC(=O)NC(=O)C2)C(=O)[C@@H](C)C1 [Cycloheximide, cycloheximide]", "MAP Dominic (ATCC 43545), isolated from human with Crohn's disease", "% ΔcGI", 9),
    ("CC[C@@]1([C@@H]2O[C@@H]([C@H]3O[C@@](O)(CO)[C@H](C)C[C@@H]3C)C[C@@H]2C)CC[C@H]([C@]2(C)CC[C@]3(C[C@H](O)[C@@H](C)[C@@H]([C@@H](C)[C@@H](OC)[C@H](C)C(=O)O)O3)O2)O1 [Monensin, monensin]", "MAP Dominic (ATCC 43545), isolated from human with Crohn's disease", "% ΔcGI", "−46"),
]
